Test Method Notes: Average peak plasma concentration of compound after 10 mg/kg intraduodenal administration to Ferret
Assay Context: in vivo
Property Measured: Cmax (ng/mL)
Your answer is read as ng/mL, so omit the unit and give the number.

Query string: // Cmax lookup, key: `CCCC[C@H](N[C@@H](Cc1ccccc1)C(=O)N1CCC(OCOC)CC1)C(=O)N[C@@H](CC1CCCCC1)[C@@H](O)C[C@H](C(=O)NCCCN1CCOCC1)C(C)C`
Result string: 4620

---

Test Method Notes: Partition coefficient (logD7.4)
Assay Context: octanol/water, pH 7.4
Here, each record is paired with measured logD data.
Could you keep your reply to the number by itself?

Please review the following examples before continuing.
smiles_representation=CCCC[C@H](O[C@@H](Cc1ccccc1)C(=O)N1CCC(OCOC)CC1)C(=O)N[C@@H](CC1CCCCC1)[C@@H](O)C[C@H](C(=O)NCCC/N=C(/NC)NC#N)C(C)C endpoint_value=4.4
smiles_representation=CCCC[C@H](O[C@@H](Cc1ccccc1)C(=O)N1CCC(OCOC)CC1)C(=O)N[C@@H](CC1CCCCC1)[C@@H](O)C[C@H](C(=O)NCCCNC(C)=O)C(C)C endpoint_value=4.3
smiles_representation=CCCC[C@H](N[C@@H](Cc1ccccc1)C(=O)N1CCC(OCOC)CC1)C(=O)N[C@@H](CC1CCCCC1)[C@@H](O)C[C@H](C(=O)NCCNc1n[nH]c(N)n1)C(C)C endpoint_value=4.2
smiles_representation=CCCC[C@H](N[C@@H](Cc1ccccc1)C(=O)N1CCC(OCOC)CC1)C(=O)N[C@@H](CC1CCCCC1)[C@@H](O)C[C@H](C(=O)NCCCN)C(C)C endpoint_value=3.3
smiles_representation=CCCC[C@H](O[C@@H](Cc1ccccc1)C(=O)N1CCC(OCOC)CC1)C(=O)N[C@@H](CC1CCCCC1)[C@@H](O)C[C@H](C(=O)NCCCNCCO)C(C)C endpoint_value=1.8

Query string: // logD lookup, key: `CCCC[C@H](O[C@@H](Cc1ccccc1)C(=O)N1CCC(OCOC)CC1)C(=O)N[C@@H](CC1CCCCC1)[C@@H](O)C[C@H](C(=O)NCCNc1noc(N)n1)C(C)C`
Result string: 4.4

Query string: And then `CCCC[C@H](N[C@@H](Cc1ccccc1)C(=O)N1CCC(OCOC)CC1)C(=O)N[C@@H](CC1CCCCC1)[C@@H](O)C[C@H](C(=O)NCCCNCCO)C(C)C` , what is it?
Result string: 3.5

Query string: And then `CCCC[C@H](O[C@@H](Cc1ccccc1)C(=O)N1CCC(OCOC)CC1)C(=O)N[C@@H](CC1CCCCC1)[C@@H](O)C[C@H](C(=O)NCCCNC(N)=NC#N)C(C)C` , what is it?
Result string: 4.5

---

Test Method Notes: Average peak plasma concentration of compound after 1 mg/kg intravenous administration to rat
Assay Context: in vivo
Here, each record is paired with measured Cmax data.
Your answer is read as ng/mL, so omit the unit and give the number.

smiles_representation=CCCC[C@H](N[C@@H](Cc1ccccc1)C(=O)N1CCC(OCOC)CC1)C(=O)N[C@@H](CC1CCCCC1)[C@@H](O)C[C@H](C(=O)NCc1cccnc1)C(C)C property_measured=Cmax unit_annotation=ng/mL endpoint_value=560

Attention now turns to another entry.
Query string: // Cmax lookup, key: `CCCC[C@H](N[C@@H](Cc1ccccc1)C(=O)N1CCC(OCOC)CC1)C(=O)N[C@@H](CC1CCCCC1)[C@@H](O)C[C@H](C(=O)NCc1ccccc1)C(C)C`
Result string: 1660

---

Test Method Notes: Average area under curve at 10 mg/kg intraduodenal administration to salt depleted dog
Assay Context: in vivo
Property Measured: AUC (ng·h/mL)
Your answer is read as ng·h/mL, so omit the unit and give the number.

smiles_representation=CCCC[C@H](N[C@@H](Cc1ccccc1)C(=O)N1CCC(OCOC)CC1)C(=O)N[C@@H](CC1CCCCC1)[C@@H](O)C[C@H](C(=O)NCCN1CCOCC1)C(C)C unit_annotation=ng·h/mL endpoint_value=6530
smiles_representation=CCCC[C@H](N[C@@H](Cc1ccccc1)C(=O)N1CCC(OCOC)CC1)C(=O)N[C@@H](CC1CCCCC1)[C@@H](O)C[C@H](C(=O)NCC(C)(C)N1CCOCC1)C(C)C unit_annotation=ng·h/mL endpoint_value=6970

Query string: // AUC lookup, key: `CCCC[C@H](N[C@@H](Cc1ccccc1)C(=O)N1CCC(OCOC)CC1)C(=O)N[C@@H](CC1CCCCC1)[C@@H](O)C[C@H](C(=O)NCCCN1CCOCC1)C(C)C`
Result string: 4000

Query string: And then `CCCC[C@H](N[C@@H](Cc1ccccc1)C(=O)N1CCC(OCOC)CC1)C(=O)N[C@@H](CC1CCCCC1)[C@@H](O)C[C@H](C(=O)NCCC[N+]1([O-])CCOCC1)C(C)C` , what is it?
Result string: 1430

---

Test Method Notes: Partition coefficient (logD7.4)
Assay Context: octanol/water, pH 7.4
Here, each record is paired with measured logD data.

Please review the following examples before continuing.
smiles_representation=CCCC[C@H](O[C@@H](Cc1ccccc1)C(=O)N1CCC(OCOC)CC1)C(=O)N[C@@H](CC1CCCCC1)[C@@H](O)C[C@H](C(=O)NCC/N=C(\NC#N)SC)C(C)C endpoint_value="> 5"
smiles_representation=CCCC[C@H](O[C@@H](Cc1ccccc1)C(=O)N1CCC(OCOC)CC1)C(=O)N[C@@H](CC1CCCCC1)[C@@H](O)C[C@H](C(=O)NCCNC(N)=NC#N)C(C)C endpoint_value="> 5"
smiles_representation=CCCC[C@H](O[C@@H](Cc1ccccc1)C(=O)N1CCC(OCOC)CC1)C(=O)N[C@@H](CC1CCCCC1)[C@@H](O)C[C@H](C(=O)NCCNC(N)=S)C(C)C endpoint_value="> 5"

Query string: // logD lookup, key: `CCCC[C@H](O[C@@H](Cc1ccccc1)C(=O)N1CCC(OCOC)CC1)C(=O)N[C@@H](CC1CCCCC1)[C@@H](O)C[C@H](C(=O)NCC(C)(C)N)C(C)C`
Result string: 3.5

Query string: And then `CCCC[C@H](N[C@@H](Cc1ccccc1)C(=O)N1CCC(OCOC)CC1)C(=O)N[C@@H](CC1CCCCC1)[C@@H](O)C[C@H](C(=O)NCCN1CCCCC1)C(C)C` , what is it?
Result string: > 5

Query string: And then `CCCC[C@H](O[C@@H](Cc1ccccc1)C(=O)N1CCC(OCOC)CC1)C(=O)N[C@@H](CC1CCCCC1)[C@@H](O)C[C@H](C(=O)NCCCN)C(C)C` , what is it?
Result string: 1.8

---

Study Target: Renin (Mustela putorius furo)
Test Method Notes: Tested in vitro for its ability to inhibit the ferret plasma renin
Property Measured: pIC50
Please report pIC50 as the negative decimal logarithm of the molar concentration, giving only the number.

Please review the following examples before continuing.
smiles_representation=CCCC[C@H](N[C@@H](Cc1ccccc1)C(=O)N1CCC(OCOC)CC1)C(=O)N[C@@H](CC1CCCCC1)[C@@H](O)C[C@H](C(=O)NCCc1ccccn1)C(C)C endpoint_value=6.29
smiles_representation=CCCC[C@H](N[C@@H](Cc1ccccc1)C(=O)N1CCC(OCOC)CC1)C(=O)N[C@@H](CC1CCCCC1)[C@@H](O)C[C@H](C(=O)NCc1ccncc1)C(C)C endpoint_value=6.03
smiles_representation=CCCC[C@H](N[C@@H](Cc1ccccc1)C(=O)N1CCC(OCOC)CC1)C(=O)N[C@@H](CC1CCCCC1)[C@@H](O)C[C@H](C(=O)NCCN1CCOCC1)C(C)C endpoint_value=6.77

Query string: // pIC50 lookup, key: `CCCC[C@H](N[C@@H](Cc1ccccc1)C(=O)N1CCC(OCOC)CC1)C(=O)N[C@@H](CC1CCCCC1)[C@@H](O)C[C@H](C(=O)NCCCn1ccnc1)C(C)C`
Result string: 6.48

Query string: And then `CCCC[C@H](N[C@@H](Cc1ccccc1)C(=O)N1CCC(OCOC)CC1)C(=O)N[C@@H](CC1CCCCC1)[C@@H](O)C[C@H](C(=O)NCc1ccccn1)C(C)C` , what is it?
Result string: 6.00

---

Here, each record is paired with measured Cmax data.
Test Method Notes: Average peak plasma concentration of compound after 1 mg/kg intravenous administration to rat
Assay Context: plasma
Your answer is read as ng/mL, so omit the unit and give the number.

smiles_representation=CCCC[C@H](N[C@@H](Cc1ccccc1)C(=O)N1CCC(OCOC)CC1)C(=O)N[C@@H](CC1CCCCC1)[C@@H](O)C[C@H](C(=O)NCCC1CCCCC1)C(C)C unit_annotation=ng/mL endpoint_value=140
smiles_representation=CCCC[C@H](N[C@@H](Cc1ccccc1)C(=O)N1CCC(OCOC)CC1)C(=O)N[C@@H](CC1CCCCC1)[C@@H](O)C[C@H](C(=O)NCC(C)(C)NCCO)C(C)C unit_annotation=ng/mL endpoint_value=3480
smiles_representation=CCCC[C@H](N[C@@H](Cc1ccccc1)C(=O)N1CCC(OCOC)CC1)C(=O)N[C@@H](CC1CCCCC1)[C@@H](O)C[C@H](C(=O)NCC(C)(C)N1CCOCC1)C(C)C unit_annotation=ng/mL endpoint_value=340

Attention now turns to another entry.
Query string: // Cmax lookup, key: `CCCC[C@H](N[C@@H](Cc1ccccc1)C(=O)N1CCC(OCOC)CC1)C(=O)N[C@@H](CC1CCCCC1)[C@@H](O)C[C@H](C(=O)NCCN1CCCC1)C(C)C`
Result string: 1310

The origin of these recorded values is ChEMBL document CHEMBL1127457.
